- experimental.protocol: In vivo distribution of cerebrospinal fluid and plasma
- applied.conditions: 0.25h, intravenous 5 mg/kg, n=1
assay.readout: Plasma (ng/mL)

• CCn1c(-c2ccc3sccc3c2O)nnc(N[C@@H]2CCCN(C)C2)c1=O [Compound 17] = 713
• CCN1CCC[C@@H](Nc2nnc(-c3ccc4sccc4c3O)n(C)c2=O)C1 [Compound 3] = 781
• CCN1C[C@H](F)C[C@@H](Nc2nnc(-c3ccc4sccc4c3O)n(C)c2=O)C1 [Compound 41] = 668
• CCn1c(-c2ccc3sccc3c2O)nnc(N[C@@H]2C[C@@H](F)CN(C)C2)c1=O [Compound 43] = 6797

----------
- experimental.protocol: In vivo brain-to-plasma ratio in mice
- applied.conditions: 6 h, male mice, oral 10 mg/kg
assay.readout: Plasma (ng/mL)

• CCn1c(-c2ccc3sccc3c2O)nnc(N[C@@H]2CCCN(C)C2)c1=O = 1872
• Cn1c(-c2ccc3sccc3c2O)nnc(N[C@@H]2CCCN(CCO)C2)c1=O = 46
• CCN1CCC[C@@H](Nc2nnc(-c3ccc4sccc4c3O)n(C)c2=O)C1 = 312
• Cc1nc(N[C@@H]2CCCC[C@H]2O)nnc1-c1ccc(C(F)(F)F)cc1O [Ref-2, reference compound] = 8.27

----------
- experimental.protocol: In vivo brain-to-plasma ratio in mice
- applied.conditions: male, mouse, plasma, po, 10 mg/kg
Below, each entry is listed alongside its reported concentration at 6 h.
assay.readout: concentration at 6 h

- CN1C[C@H](F)C[C@@H](Nc2nnc(-c3ccc4sccc4c3O)n(C)c2=O)C1 [Compound 40]: 1460 ng/mL
- CCN1CCC[C@@H](Nc2nnc(-c3ccc4sccc4c3O)n(CC)c2=O)C1 [Compound 12]: 1700 ng/mL
- CN1CCC[C@@H](Nc2nnc(-c3ccc4sccc4c3O)n(C)c2=O)C1 [Compound 4]: 1370 ng/mL

----------
- experimental.protocol: Pharmacokinetic evaluation in Balb/c mice
- Format: in vivo
- applied.conditions: male, Balb/c, mouse, in vivo, po, 5 mg/kg
Record Condition met whenever AUC(0-t) is at 10000 ng·h/mL or higher; record Condition not met when lower.

• CCN1C[C@H](F)C[C@@H](Nc2nnc(-c3ccc4sccc4c3O)n(CC)c2=O)C1 = Condition not met
• CCN1CCC[C@@H](Nc2nnc(-c3ccc4sccc4c3O)n(CC)c2=O)C1 = Condition met
• Cn1c(-c2ccc3sccc3c2O)nnc(N[C@@H]2CCCC[C@H]2O)c1=O = Condition not met
• CN1C[C@H](F)C[C@@H](Nc2nnc(-c3ccc4sccc4c3O)n(C)c2=O)C1 = Condition met
• CN1CCC[C@@H](Nc2nnc(-c3ccc4sccc4c3O)n(C)c2=O)C1 = Condition met

----------
- experimental.protocol: In vivo distribution of cerebrospinal fluid and plasma
- applied.conditions: 2h, intravenous 5 mg/kg, n=1
assay.readout: Plasma (ng/mL)

• CCN1CCC[C@@H](Nc2nnc(-c3ccc4sccc4c3O)n(C)c2=O)C1 = 185
• CCn1c(-c2ccc3sccc3c2O)nnc(N[C@@H]2CCCN(C)C2)c1=O = 590
• CCN1C[C@H](F)C[C@@H](Nc2nnc(-c3ccc4sccc4c3O)n(C)c2=O)C1 = 38
• CCn1c(-c2ccc3sccc3c2O)nnc(N[C@@H]2C[C@@H](F)CN(C)C2)c1=O = 1911

----------
- experimental.protocol: Pharmacokinetic evaluation in Balb/c mice
- Assay type: in vivo
- applied.conditions: mouse, in vivo; 5 mg/kg, PO, Balb/c mice; read-out: Cmax
- From the text: 4. Pharmacokinetic evaluation of compounds in Balb/c mice Experimental purpose: to understand pharmacokinetic properties of the compounds. Experimental basis: Technical Guidelines for Nonclinical Pharmacokinetic Studies of Chemical Drugs, 2014. Experimental protocol: the pharmacokinetic properties of the compounds were investigated via intravenous administration and intragastric administration in Balb/c mice. […]
assay.readout: Cmax (ng/mL)

• CN1C[C@H](F)C[C@@H](Nc2nnc(-c3ccc4sc(F)cc4c3O)n(C)c2=O)C1 [Compound 52] = 8570
• CC(C)n1c(-c2ccc3sccc3c2O)nnc(N[C@@H]2CCCN(C)C2)c1=O [Compound 54] = 1550
• Cn1c(-c2ccc3sccc3c2O)nnc(N[C@@H]2CCCN(CCO)C2)c1=O [Compound 9] = 2280
• COCCn1c(-c2ccc3sccc3c2O)nnc(N[C@@H]2CCCN(C)C2)c1=O [Compound 51] = 2940

----------
Item-by-item account of AUC(0-t)
- experimental.protocol: Pharmacokinetic evaluation in Balb/c mice
- Format: in vivo
- applied.conditions: mouse, in vivo; 5 mg/kg, PO, Balb/c mice; read-out: AUC(0-t)
assay.readout: AUC(0-t) (ng·h/mL)

- Cn1c(-c2ccc3sccc3c2O)nnc(N[C@@H]2CCCN(CCO)C2)c1=O: 4400
- CC(C)N1CCC[C@@H](Nc2nnc(-c3ccc4sccc4c3O)n(C)c2=O)C1: 3320
- CCN1CCC[C@@H](Nc2nnc(-c3ccc4sccc4c3O)n(C)c2=O)C1: 6730
- CCN1CCC[C@@H](Nc2nnc(-c3ccc4c(c3O)CCC4=C(F)F)n(C)c2=O)C1: 15200
- Cc1nc(N[C@@H]2CCCC[C@H]2O)nnc1-c1ccc(C(F)(F)F)cc1O [Ref-2, reference compound]: 270
- CN1C[C@H](F)C[C@@H](Nc2nnc(-c3ccc4sc(F)cc4c3O)n(C)c2=O)C1: 21400
- [2H]C([2H])([2H])C([2H])([2H])N1CCC[C@@H](Nc2nnc(-c3ccc4sccc4c3O)n(C)c2=O)C1: 8300
- [2H]C([2H])([2H])n1c(-c2ccc3sccc3c2O)nnc(N[C@@H]2CCCN(CC)C2)c1=O: 7450
- CN1CCC[C@@H](Nc2nnc(-c3ccc(C(F)(F)F)cc3O)n(C)c2=O)C1 [Ref-3, reference compound]: 1820
- CC(C)n1c(-c2ccc3sccc3c2O)nnc(N[C@@H]2CCCN(C)C2)c1=O: 7470
- COCCn1c(-c2ccc3sccc3c2O)nnc(N[C@@H]2CCCN(C)C2)c1=O: 9780
- CN1CCC[C@@H](Nc2nnc(-c3ccc4c(c3O)CCC4=C(F)F)n(C)c2=O)C1: 98700
- CCn1c(-c2ccc3sccc3c2O)nnc(N[C@@H]2CCCN(C)C2)c1=O: 17800
- CCN1C[C@H](F)C[C@@H](Nc2nnc(-c3ccc(C4CC4)cc3O)n(C)c2=O)C1: 1400
- CCn1c(-c2ccc3sccc3c2O)nnc(N[C@@H]2C[C@@H](F)CN(C)C2)c1=O: 15700

----------
- target.or.system: NLRP3 inflammasome (Homo sapiens)
- Construct: host or cells: THP-1 cells
- Sequence (Q96P20 whole entry): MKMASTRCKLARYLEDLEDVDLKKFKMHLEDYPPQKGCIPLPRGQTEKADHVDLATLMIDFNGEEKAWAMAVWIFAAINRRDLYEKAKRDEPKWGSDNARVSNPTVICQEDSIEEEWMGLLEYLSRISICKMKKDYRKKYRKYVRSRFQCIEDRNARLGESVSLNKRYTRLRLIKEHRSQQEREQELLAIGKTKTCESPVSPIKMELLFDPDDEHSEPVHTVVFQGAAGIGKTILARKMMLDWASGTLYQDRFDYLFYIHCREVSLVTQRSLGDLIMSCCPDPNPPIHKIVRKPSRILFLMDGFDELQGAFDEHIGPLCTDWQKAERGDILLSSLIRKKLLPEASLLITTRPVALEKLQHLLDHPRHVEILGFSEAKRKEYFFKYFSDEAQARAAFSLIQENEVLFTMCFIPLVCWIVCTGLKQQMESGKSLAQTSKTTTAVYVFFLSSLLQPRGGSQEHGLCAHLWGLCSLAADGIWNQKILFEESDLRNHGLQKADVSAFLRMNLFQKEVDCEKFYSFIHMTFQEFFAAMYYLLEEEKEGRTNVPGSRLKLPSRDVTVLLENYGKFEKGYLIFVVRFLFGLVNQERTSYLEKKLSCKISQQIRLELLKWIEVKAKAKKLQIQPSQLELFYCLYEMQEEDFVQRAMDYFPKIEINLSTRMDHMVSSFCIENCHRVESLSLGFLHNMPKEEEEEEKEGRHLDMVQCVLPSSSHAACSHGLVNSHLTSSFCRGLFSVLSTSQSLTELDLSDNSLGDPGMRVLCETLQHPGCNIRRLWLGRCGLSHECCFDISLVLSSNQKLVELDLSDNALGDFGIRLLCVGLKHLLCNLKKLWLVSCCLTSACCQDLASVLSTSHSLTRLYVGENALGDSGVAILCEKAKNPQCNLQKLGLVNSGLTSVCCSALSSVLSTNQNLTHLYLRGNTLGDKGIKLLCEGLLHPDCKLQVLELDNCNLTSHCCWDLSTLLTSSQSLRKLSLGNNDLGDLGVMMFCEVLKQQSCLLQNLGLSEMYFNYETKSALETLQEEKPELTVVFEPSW
- experimental.protocol: Inhibitory activity of NLRP3 inflammasome in human monocytes (THP-1 cells, LPS + Nigericin, IL-1β ELISA)
- Format: cell-based
- applied.conditions: THP-1 cells, PMA, LPS 1 µg/mL 3 h, drug 40 min, Nigericin 10 µM 40 min, IL-1β ELISA; read-out: IC50
Labelling: IC50 reported below 6 nM becomes 1; at or above becomes 0.

* CN1CCCC2CCN(c3nnc(-c4ccc5sccc5c4O)n(C)c3=O)C21 (stereo not drawn) | 0
* Cn1c(-c2ccc3sccc3c2O)nnc(N[C@@H]2CCCC[C@H]2O)c1=O | 1
* CN1C[C@H](F)C[C@@H](Nc2nnc(-c3ccc4sccc4c3O)n(C)c2=O)C1 | 1
* CCN1C[C@H](F)C[C@@H](Nc2nnc(-c3ccc4sccc4c3O)n(CC)c2=O)C1 | 1
* CCN1CCC[C@@H](Nc2nnc(-c3ccc4sccc4c3O)n(CC)c2=O)C1 | 0
* C#Cc1ccc(-c2nnc(N[C@@H]3CCCN(CC)C3)c(=O)n2C)c(O)c1 | 0
* CC#Cc1ccc(-c2nnc(N[C@@H]3CCCN(C)C3)c(=O)n2C)c(O)c1 | 0
* Cn1c(-c2ccc3sccc3c2O)nnc(N[C@@H]2CCCN(C3CC3)C2)c1=O | 1
* CN1CCC[C@@H](Nc2nnc(-c3ccc(C(F)(F)F)cc3O)n(C)c2=O)C1 [Ref-3, reference compound] | 0
* Cn1c(-c2ccc3sccc3c2O)nnc(N[C@@H]2CCCN(CC3CC3)C2)c1=O | 1
* CC#Cc1ccc(-c2nnc(N[C@@H]3CCCN(CCO)C3)c(=O)n2C)c(O)c1 | 0
* CN1CCC[C@@H](Nc2nnc(-c3ccc4sccc4c3O)n(C)c2=O)C1 | 1

----------
Reported 20 uM Inhibition ratio is given for each of the following compounds.
- target.or.system: hERG potassium ion channel (Homo sapiens, UniProt Q12809)
- Sequence (Q12809 whole entry): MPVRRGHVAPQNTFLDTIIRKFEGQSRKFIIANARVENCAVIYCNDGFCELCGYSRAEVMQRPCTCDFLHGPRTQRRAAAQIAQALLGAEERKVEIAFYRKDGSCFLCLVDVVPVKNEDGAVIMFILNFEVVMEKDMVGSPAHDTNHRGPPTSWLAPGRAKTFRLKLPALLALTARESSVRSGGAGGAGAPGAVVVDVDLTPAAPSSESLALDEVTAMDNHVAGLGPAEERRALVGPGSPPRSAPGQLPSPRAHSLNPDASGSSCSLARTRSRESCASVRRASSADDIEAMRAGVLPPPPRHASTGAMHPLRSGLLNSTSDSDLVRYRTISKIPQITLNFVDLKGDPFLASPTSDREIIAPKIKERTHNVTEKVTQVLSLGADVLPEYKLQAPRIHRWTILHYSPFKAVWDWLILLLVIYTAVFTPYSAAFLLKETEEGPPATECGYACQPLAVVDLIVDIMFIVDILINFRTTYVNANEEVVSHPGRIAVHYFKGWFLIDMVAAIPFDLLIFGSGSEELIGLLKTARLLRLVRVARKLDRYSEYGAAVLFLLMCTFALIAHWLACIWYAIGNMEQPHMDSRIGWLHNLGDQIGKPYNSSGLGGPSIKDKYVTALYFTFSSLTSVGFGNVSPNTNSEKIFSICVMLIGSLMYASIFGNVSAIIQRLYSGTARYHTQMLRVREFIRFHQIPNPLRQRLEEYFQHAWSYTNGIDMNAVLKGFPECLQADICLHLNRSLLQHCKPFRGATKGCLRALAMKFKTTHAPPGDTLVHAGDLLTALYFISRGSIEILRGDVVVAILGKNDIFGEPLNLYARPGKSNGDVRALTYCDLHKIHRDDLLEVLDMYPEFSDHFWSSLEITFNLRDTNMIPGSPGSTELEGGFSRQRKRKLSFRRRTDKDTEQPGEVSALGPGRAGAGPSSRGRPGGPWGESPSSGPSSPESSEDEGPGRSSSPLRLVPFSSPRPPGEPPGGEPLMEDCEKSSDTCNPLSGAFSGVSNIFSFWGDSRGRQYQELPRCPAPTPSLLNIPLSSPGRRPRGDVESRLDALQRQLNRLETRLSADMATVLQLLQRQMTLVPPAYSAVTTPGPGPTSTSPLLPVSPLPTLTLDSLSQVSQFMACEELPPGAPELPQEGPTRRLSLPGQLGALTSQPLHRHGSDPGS
- experimental.protocol: Inhibition of hERG potassium ion channel (CHO cells stably expressing hERG, Qpatch)
assay.readout: 20 uM Inhibition ratio (%)

- CCN1C[C@H](F)C[C@@H](Nc2nnc(-c3ccc4sccc4c3O)n(CC)c2=O)C1: 14.98
- Cn1c(-c2ccc3sccc3c2O)nnc(N[C@@H]2CCCN(C3CC3)C2)c1=O: 35.63
- CN1CCC[C@@H](Nc2nnc(-c3ccc4sccc4c3O)n(C)c2=O)C1: 14.87
- CCn1c(-c2ccc3sccc3c2O)nnc(N[C@@H]2CCCN(C)C2)c1=O: 22.83
- CCN1CCC[C@@H](Nc2nnc(-c3ccc4sccc4c3O)n(C)c2=O)C1: 38.23
- CCN1C[C@H](F)C[C@@H](Nc2nnc(-c3ccc4sccc4c3O)n(C)c2=O)C1: 13.31
- CCN1CCC[C@@H](Nc2nnc(-c3ccc4sccc4c3O)n(CC)c2=O)C1: 52.99
- Cn1c(-c2ccc3sccc3c2O)nnc(N[C@@H]2CCCN(CCO)C2)c1=O: 8.83
